tested on: SB.mhdgc-1; assay: area under the dose-response curve of % viability (trapezoidal, 11 doses) (% viability x log10 concentration); higher = less cytotoxic; settings: SB.mhdgc-1 (hereditary c.1380delA CDH1 gastric cancer)
QUANTITY KIND: area under the dose-response curve
Answers are plain numbers.

// solved cases for area under the dose-response curve follow
>>> observed_value("COc1cc(C)c(Sc2cnc(NC(=O)c3ccc(CNC(C)C(C)C)cc3)s2)cc1C(=O)N1CCN(C(C)=O)CC1 (configuration not stated) [ITK inhibitor] (top concentration 46.0829 µM)")
454
>>> observed_value("Nc1nc(F)nc2c1ncn2[C@@H]1O[C@H](COP(=O)(O)O)[C@@H](O)[C@@H]1O [Fludarabine phosphate] (top concentration 46.0829 µM)")
490
>>> observed_value("Cc1ncc([N+](=O)[O-])n1CCO [Metronidazole] (top concentration 46.0829 µM)")
483
>>> observed_value("OC[C@H]1O[C@H]([C@H](O)[C@@H]1O)N2\\C=C/C(=O)NC2=O [Uridine] (top concentration 46.0829 µM)")
521

Provide each entry's area under the dose-response curve from the list below.
1. Nc1cc(C(F)(F)F)c(-c2cc(N3CCOCC3)nc(N3CCOCC3)n2)cn1 [BKM-120] (top concentration 46.0829 µM)
2. CN1CCN(Cc2ccc(NC(=O)Nc3ccc(Oc4cc(NC(=O)C5CC5)ncn4)cc3)cc2C(F)(F)F)CC1 [WS3] (top concentration 46.0829 µM)

Key:
285
328

Hi there! I need area under the dose-response curve for each item below, if you can.
1. N\C1=N\C2=C(N=C[N]2COC(CO)CO)C(=O)N1 [Ganciclovir] (top concentration 46.0829 µM)
2. CCNC(=O)c1noc(-c2cc(C(C)C)c(O)cc2O)c1-c1ccc(CN2CCOCC2)cc1 [NVP-AUY922] (top concentration 46.0829 µM)
3. COc1ccc(-c2cc3nccn3c(Nc3ncccc3C(N)=O)n2)cc1OC [BAY61-3606] (top concentration 46.0829 µM)
4. CCCCCNC(=O)N1CCC(CN(Cc2ccc(Cl)cc2)Cc2ccc([N+](=O)[O-])s2)C1 (configuration not stated) [SR9011] (top concentration 46.0829 µM)

Key:
[480, 260, 496, 518]

Could you tell me area under the dose-response curve for each of these molecules? They are listed below.
1. CN(C)CC(=O)N1CCC(CC1)C2=CC=C(NC(=O)C3=NC(=C[NH]3)C#N)C(=C2)\C4=C\CCCC4 (top concentration 46.0829 µM)
2. CN[C@@H](C)C(=O)N[C@H]1CN(C(=O)CC(C)C)CC[C@H]2CC[C@@H](C(=O)NC(c3ccccc3)c3ccccc3)N2C1=O [AT-406] (top concentration 46.0829 µM)

Key:
1. 486
2. 385

Data provenance: the supplement of paper PMC5412046
